Could you please report measured pKd for the items listed next?
molecular target: FRMPD4, Q14CM0; assay: holdup assay; parameters: key: below the threshold = too weak to quantify, mostly under pKd 3.1 to 4; details: plain residues with an end cap or a label only (N-terminal biotin on a linker: ado-ado)
Sequence (Q14CM0 67-160): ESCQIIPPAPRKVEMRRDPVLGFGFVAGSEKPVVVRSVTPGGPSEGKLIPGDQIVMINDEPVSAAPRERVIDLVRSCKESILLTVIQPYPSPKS
Give bare numbers.

QKNKDREYYV [NRXN3, Q9HDB5]    4.4
EFKQTSSFLV [JAM1, Q9Y624]    3.76
RDYTQSSSSL [GRM5, P41594]    3.65
LLQEEWETVM [PTH1R, Q03431]    4.12

// input: 6 binders below; output: pKd for each
1. ADEMICITTL [CACNA1D, Q01668]
2. VCMGDHWFDV [PRKN, O60260]
3. QLKSGRDSTV [TMEM178A, Q8NBL3]
4. KSRPENGTVC [TMEM178B, H3BS89]
5. THREVKFTSL [CD46, P15529]
6. AKADAQESRL [PLCB2, Q00722]

Result:
1: 3.97; 2: 3.86; 3: 3.61; 4: 3.49; 5: 4.16; 6: 4.05
